test system: Human immunodeficiency virus 1; assay: Antiviral activity against HIV-1 3B infected in human MT4 cells assessed as cell viability after 5 days by MTT assay; assay type: functional, organism-based; conditions: Human immunodeficiency virus 1, 3B, MT4, 120 h
measureName: EC50 (µM)
One number for each entry, in µM.

Given the entry O=C(CSc1sc(Cl)nc1-c1ccc(Br)cc1Br)Nc1ccccc1[N+](=O)[O-] , what EC50 was observed with Human immunodeficiency virus 1?
2.09

====

test system: Human immunodeficiency virus 1; experiment: Antiviral activity against HIV-1 harboring reverse transcriptase K103N/Y181C double mutant infected in human MT4 cells; assay type: functional, organism-based; conditions: Human immunodeficiency virus 1, MT4
Give measured EC50 for each item. Keep answers brief.
Give bare numbers, in µM.

1. O=C(CSc1nnsc1-c1cccc2ccccc12)Nc1cccnc1Cl | 5.11

If you can, please state the reported EC50 value of O=C(CSc1nnsc1-c1cccc2ccccc12)Nc1ccccc1Br .
34.4
